Data provenance is the Immune Epitope Database (IEDB).

target_system: HLA-B*51:01
test_details: IEDB peptide-MHC binding, purified MHC/competitive/fluorescence; filed as Kd, often an IC50 or EC50 that approximates it; bounds were set here for any values at or beyond the usual limits of such assays
measurement_parameters: source organism: Cryptosporidium parvum Iowa II
pKd: −log10 of the molar value.
experimental_endpoint: pKd

Entry RGRKPIFRK : reported pKd = ? ≤ 4.70

* * *

target_system: HLA-A*32:01
test_details: IEDB peptide-MHC binding, purified MHC/competitive/radioactivity; filed as Kd, often an IC50 or EC50 that approximates it; bounds were set here for any values at or beyond the usual limits of such assays
measurement_parameters: source organism: Mammarenavirus guanaritoense
experimental_endpoint: pKd
Expect pKd as a plain number equal to -log10 of the molar concentration.

Entry PSLCRVNNSY : reported pKd = ? 5.01

* * *

target_system: HLA-B*44:03
test_details: IEDB peptide-MHC binding, purified MHC/competitive/radioactivity; filed as Kd, often an IC50 or EC50 that approximates it; bounds were set here for any values at or beyond the usual limits of such assays
measurement_parameters: source organism: SARS coronavirus Tor2
Answer each item with its documented Kd.

Request: Kd, test system HLA-B*44:03, entry AEVQIDRLIT 90.5 nM

Request: Kd, test system HLA-B*44:03, entry DESASKSASV 887 nM

Request: Kd, test system HLA-B*44:03, entry MEAQFLYLYA 8.16 nM

Request: Kd, test system HLA-B*44:03, entry KEEILGTVSW 48.1 nM

Request: Kd, test system HLA-B*44:03, entry FDAWFSQRGG ≥ 32000 nM

Request: Kd, test system HLA-B*44:03, entry REAPAHVST 8470 nM

Request: Kd, test system HLA-B*44:03, entry REEAIRHVRA ≥ 45900 nM

Request: Kd, test system HLA-B*44:03, entry RELHLSWEV 21.5 nM

Request: Kd, test system HLA-B*44:03, entry FELLNAPAT 6130 nM

Request: Kd, test system HLA-B*44:03, entry IDFYLCFLAF 88.1 nM

Request: Kd, test system HLA-B*44:03, entry RELHLSWEVG 42.7 nM

* * *

target_system: HLA-A*31:01
test_details: IEDB peptide-MHC binding, purified MHC/direct/fluorescence; filed as Kd, often an IC50 or EC50 that approximates it; bounds were set here for any values at or beyond the usual limits of such assays
measurement_parameters: source organism: Coxiella burnetii
experimental_endpoint: Kd (nM)
# number only, unit nM dropped from output

Entry AISRLRTQK : reported Kd = ? 344

* * *

target_system: HLA-A*31:01
test_details: IEDB peptide-MHC binding, purified MHC/direct/fluorescence; filed as Kd, often an IC50 or EC50 that approximates it; bounds were set here for any values at or beyond the usual limits of such assays
measurement_parameters: source organism: Influenza A virus (A/Wisconsin/4755/1994(H1N1))
pKd: −log10 of the molar value.
experimental_endpoint: pKd

Entry DPKKTGGPI : reported pKd = ? ≤ 4.70

* * *

target_system: HLA-B*27:03
test_details: IEDB peptide-MHC binding, purified MHC/competitive/fluorescence; filed as Kd, often an IC50 or EC50 that approximates it; bounds were set here for any values at or beyond the usual limits of such assays
measurement_parameters: source organism: Yersinia enterocolitica
pKd: −log10 of the molar value.
experimental_endpoint: pKd

Entry RTVSVMFFI : reported pKd = ? ≤ 4.70

* * *

target_system: HLA-C*06:02
test_details: IEDB peptide-MHC binding, purified MHC/direct/fluorescence; filed as Kd, often an IC50 or EC50 that approximates it; bounds were set here for any values at or beyond the usual limits of such assays
measurement_parameters: source organism: Yellow fever virus
pKd: −log10 of the molar value.
experimental_endpoint: pKd

Entry RWFVRNPFF : reported pKd = ? ≤ 4.70

* * *

target_system: HLA-A*24:03
test_details: IEDB peptide-MHC binding, purified MHC/direct/fluorescence; filed as Kd, often an IC50 or EC50 that approximates it; bounds were set here for any values at or beyond the usual limits of such assays
measurement_parameters: source organism: Mycobacterium tuberculosis
experimental_endpoint: pKd
Expect pKd as a plain number equal to -log10 of the molar concentration.

Entry VYAPAGVEL : reported pKd = ? 8.68

* * *

target_system: HLA-A*02:01
test_details: IEDB peptide-MHC binding, purified MHC/direct/fluorescence; filed as Kd, often an IC50 or EC50 that approximates it; bounds were set here for any values at or beyond the usual limits of such assays
measurement_parameters: source organism: Rickettsia bellii
experimental_endpoint: Kd

Entry NIDPEHLDY : reported Kd = ? ≥ 20 µM

* * *

target_system: HLA-B*18:01
test_details: IEDB peptide-MHC binding, purified MHC/competitive/fluorescence; filed as Kd, often an IC50 or EC50 that approximates it; bounds were set here for any values at or beyond the usual limits of such assays
measurement_parameters: source organism: Reston ebolavirus
experimental_endpoint: Kd

Entry LPRERFRKT : reported Kd = ? ≥ 20 µM

* * *

target_system: HLA-A*02:12
test_details: IEDB peptide-MHC binding, purified MHC/competitive/fluorescence; filed as Kd, often an IC50 or EC50 that approximates it; bounds were set here for any values at or beyond the usual limits of such assays
measurement_parameters: source organism: Vibrio parahaemolyticus AQ3810
experimental_endpoint: Kd
In your response, put the unit directly after the numeric value.

Entry KVGYFQHGA : reported Kd = ? 171 nM

* * *

target_system: HLA-B*15:01
test_details: IEDB peptide-MHC binding, purified MHC/competitive/fluorescence; filed as Kd, often an IC50 or EC50 that approximates it; bounds were set here for any values at or beyond the usual limits of such assays
measurement_parameters: source organism: Cryptosporidium parvum Iowa II
experimental_endpoint: Kd

Entry RGRKPIFRK : reported Kd = ? ≥ 20 µM

* * *

target_system: HLA-A*26:01
test_details: IEDB peptide-MHC binding, purified MHC/direct/fluorescence; filed as Kd, often an IC50 or EC50 that approximates it; bounds were set here for any values at or beyond the usual limits of such assays
measurement_parameters: source organism: Vibrio parahaemolyticus
pKd: −log10 of the molar value.
experimental_endpoint: pKd

Request: pKd, test system HLA-A*26:01, entry AFDWPELEF ≤ 4.70

* * *

target_system: HLA-A*02:01
test_details: IEDB peptide-MHC binding, purified MHC/direct/fluorescence; filed as Kd, often an IC50 or EC50 that approximates it; bounds were set here for any values at or beyond the usual limits of such assays
measurement_parameters: source organism: Haemophilus influenzae
experimental_endpoint: pKd
Expect pKd as a plain number equal to -log10 of the molar concentration.

Entry YATVAGHEG : reported pKd = ? 6.18

* * *

target_system: HLA-A*01:01
test_details: IEDB peptide-MHC binding, purified MHC/direct/fluorescence; filed as Kd, often an IC50 or EC50 that approximates it; bounds were set here for any values at or beyond the usual limits of such assays
measurement_parameters: source organism: Mycobacterium tuberculosis
Answer each item with its documented pKd.
Expect pKd as a plain number equal to -log10 of the molar concentration.

Entry QTYMYTGQY : reported pKd = ? 6.29

Entry RPRLHSISF : reported pKd = ? 5.88

* * *

target_system: HLA-A*31:01
test_details: IEDB peptide-MHC binding, purified MHC/competitive/radioactivity; filed as Kd, often an IC50 or EC50 that approximates it; bounds were set here for any values at or beyond the usual limits of such assays
measurement_parameters: source organism: Dengue virus 1 Brazil/97-11/1997
Answer each item with its documented Kd.

Entry RNKKPRICTR : reported Kd = ? ≥ 70 µM

Entry KIIHEWCCR : reported Kd = ? ≥ 59.3 µM

Entry SSMLNIMNR : reported Kd = ? 11.8 µM

* * *

target_system: HLA-A*29:02
test_details: IEDB peptide-MHC binding, purified MHC/direct/fluorescence; filed as Kd, often an IC50 or EC50 that approximates it; bounds were set here for any values at or beyond the usual limits of such assays
measurement_parameters: source organism: West Nile virus strain PTRoxo
experimental_endpoint: Kd (nM)
# number only, unit nM dropped from output

Entry MTRGLLGSY : reported Kd = ? 99

* * *

target_system: HLA-A*26:01
test_details: IEDB peptide-MHC binding, purified MHC/competitive/fluorescence; filed as Kd, often an IC50 or EC50 that approximates it; bounds were set here for any values at or beyond the usual limits of such assays
measurement_parameters: source organism: Giardia lamblia ATCC 50803
experimental_endpoint: Kd

Entry DEYGPVFVE : reported Kd = ? ≥ 20 µM

* * *

target_system: HLA-B*07:02
test_details: IEDB peptide-MHC binding, purified MHC/direct/fluorescence; filed as Kd, often an IC50 or EC50 that approximates it; bounds were set here for any values at or beyond the usual limits of such assays
measurement_parameters: source organism: Brucella abortus
experimental_endpoint: Kd

Request: Kd, test system HLA-B*07:02, entry GRDHVRVTL ≥ 20 µM

* * *

target_system: HLA-A*31:01
test_details: IEDB peptide-MHC binding, purified MHC/direct/fluorescence; filed as Kd, often an IC50 or EC50 that approximates it; bounds were set here for any values at or beyond the usual limits of such assays
measurement_parameters: source organism: Vibrio parahaemolyticus
Answer each item with its documented Kd.

Entry AFDWPELEF : reported Kd = ? ≥ 20 µM

Entry MLDQFGVSY : reported Kd = ? ≥ 20 µM
